Value source: ChEMBL document CHEMBL1124473

Molecular target: S-methyl-5'-thioadenosine phosphorylase (Mus musculus)
Sequence (Q9CQ65 whole entry): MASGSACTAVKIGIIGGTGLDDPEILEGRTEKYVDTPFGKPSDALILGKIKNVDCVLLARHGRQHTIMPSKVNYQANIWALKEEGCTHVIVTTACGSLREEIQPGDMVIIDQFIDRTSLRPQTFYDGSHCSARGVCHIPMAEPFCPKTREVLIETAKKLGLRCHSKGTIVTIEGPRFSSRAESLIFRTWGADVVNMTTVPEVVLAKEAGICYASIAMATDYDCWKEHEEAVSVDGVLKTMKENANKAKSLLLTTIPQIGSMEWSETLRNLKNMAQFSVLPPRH
Quantity name: Ki (µM)
Kindly answer with a numeric value in µM, unit omitted.

The reported S-methyl-5'-thioadenosine phosphorylase (Mus musculus) Ki of Nc1ncnc2c1ncn2C1O[C@H](CSCF)[C@@H](O)[C@H]1O (stereo partly specified) is 3.3
